test: Intrinsic clearance in human liver microsome at 1 uM incubated for 30 mins in presence of NADPH by LC-MS/MS analysis; format: ADME, microsomes; settings: liver microsomes, read-out: CLH
measurementKind: microsomal CLint at 1 µM (µL/min/mg)

# compound, resultUnit, measurement
rows = [
    ("Cn1cnnc1[C@]1(c2cccc(-n3nc4c(C(F)(F)F)cccn4c3=O)c2)C[C@H](C)C1", "µL/min/mg", 48),
    ("C[C@H]1CCCN(Cc2cc(C(F)(F)F)c3nn(-c4cccc([C@]5(c6nncn6C)C[C@@H](C)C5)c4)c(=O)n3c2)C1", "µL/min/mg", 160),
    ("Cc1cc(C(=O)Nc2cccc(C3(C)CNC(=O)O3)c2)nc(C2CC2)n1 (single isomer, unassigned; 14)", "µL/min/mg", 16),
    ("O=C1NCC[C@@](c2cccc(-c3cc(C(F)(F)F)c[nH]c3=O)c2)(C2CC2)O1", "µL/min/mg", 35),
    ("Cc1cc(C(=O)Nc2cccc([C@@]3(C)CCNC(=O)O3)c2)nc(C2CC2)n1", "µL/min/mg", 7.7),
    ("Cc1cc(C(=O)Nc2cccc([C@@]3(C)CCNC(=O)C3)c2)nc(C2CC2)n1", "µL/min/mg", 23),
]

a = Cc1cc(C(=O)Nc2cccc([C@@]3(C4CC4)CCNC(=O)O3)c2)nc(C2CC2)n1
b = Cc1cc(C(=O)Nc2cccc([C@]3(C4CC4)CCNC(=O)O3)c2)nc(C2CC2)n1
-- ask Which record shows the lower microsomal CLint at 1 µM: the first, a , or the second, b ? Give the label of your selection.
-- reply b

P = Cc1cc(C(=O)Nc2cccc(C3(C)CCNC(=O)N3C)c2)nc(C2CC2)n1 (racemic)
Q = Cc1cc(C(=O)Nc2cccc([C@]3(C)CCNC(=O)O3)c2)nc(C2CC2)n1
R = C[C@H]1CCCN(Cc2cc(C(F)(F)F)c3nn(-c4cccc([C@]5(C6CC6)CCNC(=O)O5)c4)c(=O)n3c2)C1
-- ask Endpoint returns the given compounds ordered by ascending microsomal CLint at 1 µM. Quick reminder: the answer is the labels in the order asked.
-- reply Q, P, R

###

// values below are IC50; system is E3 ubiquitin-protein ligase CBL-B (Homo sapiens)
Sequence (Q13191 whole entry): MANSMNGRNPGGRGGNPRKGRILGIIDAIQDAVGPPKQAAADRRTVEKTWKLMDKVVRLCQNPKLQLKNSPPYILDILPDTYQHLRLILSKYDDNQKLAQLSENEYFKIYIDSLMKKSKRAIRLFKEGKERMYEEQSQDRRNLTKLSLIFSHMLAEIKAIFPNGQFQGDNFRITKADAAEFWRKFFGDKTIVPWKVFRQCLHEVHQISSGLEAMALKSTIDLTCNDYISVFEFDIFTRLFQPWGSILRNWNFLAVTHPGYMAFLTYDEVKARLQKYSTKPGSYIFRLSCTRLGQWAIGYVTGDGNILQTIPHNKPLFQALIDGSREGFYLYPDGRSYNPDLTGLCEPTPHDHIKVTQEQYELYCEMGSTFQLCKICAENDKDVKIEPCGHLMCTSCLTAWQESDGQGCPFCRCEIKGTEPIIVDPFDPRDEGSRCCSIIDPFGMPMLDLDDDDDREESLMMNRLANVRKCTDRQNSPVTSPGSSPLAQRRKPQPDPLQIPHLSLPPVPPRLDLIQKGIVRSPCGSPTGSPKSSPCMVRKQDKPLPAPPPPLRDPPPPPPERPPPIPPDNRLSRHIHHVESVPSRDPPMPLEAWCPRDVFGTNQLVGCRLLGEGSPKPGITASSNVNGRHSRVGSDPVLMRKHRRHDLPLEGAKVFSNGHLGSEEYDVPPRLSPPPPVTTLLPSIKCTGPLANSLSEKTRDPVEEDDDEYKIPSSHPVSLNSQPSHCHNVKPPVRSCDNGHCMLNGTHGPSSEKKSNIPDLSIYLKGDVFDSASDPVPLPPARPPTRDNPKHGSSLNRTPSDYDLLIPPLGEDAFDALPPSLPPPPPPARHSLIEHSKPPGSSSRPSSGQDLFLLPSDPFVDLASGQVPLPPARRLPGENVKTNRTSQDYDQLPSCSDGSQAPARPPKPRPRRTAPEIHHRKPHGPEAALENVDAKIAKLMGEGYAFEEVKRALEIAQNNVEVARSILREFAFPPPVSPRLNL
measurementKind: IC50 (µM)

Reference set, count: 4
# smiles, resultUnit, IC50
records = [
    ("C[C@H]1CCCN(Cc2cc(C(F)(F)F)c3nn(-c4cccc([C@]5(c6nncn6C)C[C@@H](C)C5)c4)c(=O)n3c2)C1", "µM", 0.011),
    ("C[C@H]1CCCN(Cc2cc(C(F)(F)F)c3nn(-c4cccc(C5(C)CC(=O)NC(=O)C5)c4)c(=O)n3c2)C1", "µM", 6.6),
    ("Cc1cc(C(=O)Nc2cccc([C@@]3(C)CCNC(=O)C3)c2)nc(C2CC2)n1", "µM", 33),
    ("Cc1cc(C(=O)Nc2cccc([C@]3(C)CCNC(=O)C3)c2)nc(C2CC2)n1", "µM", 28),
]

a = CC[C@@]1(c2cccc(NC(=O)c3cc(C)nc(C4CC4)n3)c2)CCNC(=O)O1
b = Cc1cc(C(=O)Nc2cccc([C@]3(C)CCNC(=O)O3)c2)nc(C2CC2)n1
-- ask Which record shows the lower IC50: the first, a , or the second, b ? Give the label of your selection.
-- reply a

Data origin: ChEMBL document CHEMBL5576144
